- Tested on: TK-10 renal
- METHOD_SUMMARY: NCI-60 one-dose screen, 48 h
- REPORTED_CONDITIONS: 10 µM unless noted
The panel holds about 83,000 compounds, 20% with a hit somewhere; the sample as a whole holds those more often. The source made the active and inactive calls. Rule for the calls: active = growth percent below 10; inactive = the rest.
Return exactly one item of t for active, f for inactive

These recorded examples may help you get a feel for the data.
{"columns": ["MOLECULE", "CLASS"],
 "data": [
  ["C=C1C(=O)O[C@H]2[C@H]1CC/C(CNS(=O)(=O)c1ccc3ccccc3c1)=C\\CC[C@@]1(C)O[C@@H]21", "t"],
  ["Cc1nn(-c2nc(-c3cc4ccccc4oc3=O)cs2)c(C)c1N=Nc1ccccc1", "f"],
  ["COc1ccc(/C(C)=C(\\c2ccc(OCCN3CCCCCC3)cc2)c2ccc(OC(=O)C3CCCCC3)cc2)cc1", "t"],
  ["C#CCn1cnc2cnc(Nc3cccc(NC(=O)CCl)c3)nc21", "t"],
  ["Cc1ccc(S(=O)(=O)Nc2cc(Sc3ccccc3)c(O)c3ccccc23)cc1", "f"]
]}

Turning now to a further record.
Query: Could you please tell me the result logged for Cc1ccc(/C=C/c2c(C(=O)/C=C/c3ccccc3)c(C)nc3ccccc23)cc1 in this assay?
Reply: f

###

- Tested on: DU-145 prostate
- METHOD_SUMMARY: NCI-60 one-dose screen, 48 h (100 = growth as untreated, 0 = no growth, -100 = all killed)
- REPORTED_CONDITIONS: 10 µM unless noted
The panel holds about 83,000 compounds, 20% with a hit somewhere; the sample as a whole holds those more often.
Please note: met applies when growth is 80% or greater, and not met applies otherwise.

These recorded examples may help you get a feel for the data.
{"columns": ["COMPOUND", "CLASS"],
 "data": [
  ["COc1cc(/C=C/C(=O)c2ccc(NC(=O)CSc3nnc(-c4cc(-c5ccccc5)nc5ccccc45)n3-c3ccccc3)cc2)cc(OC)c1OC", "met"],
  ["CCCCC#Cc1c(/C=C(\\CCCC)SCC)n(C)c(=O)[nH]c1=O", "met"],
  ["COC(=O)N/N=C/c1c[n+]([O-])c2ccccc2[n+]1[O-]", "met"]
]}

Query: Identify whether the reported growth of the following compound is 80% or greater: O=C(/C=C/c1cccs1)Nc1ncc(Cc2ccc(Cl)c(Cl)c2)s1
Reply: not met

Query: Identify whether the reported growth of the following compound is 80% or greater: O=[N+]([O-])c1ccc2[nH]c3nccc(NCc4cccc(Cl)c4)c3c2c1
Reply: not met

Query: Identify whether the reported growth of the following compound is 80% or greater: Fc1ccccc1-c1cnn2cc(-c3ccccc3)cnc12
Reply: met

Query: Identify whether the reported growth of the following compound is 80% or greater: COc1cc(CNC(=O)CCCC/C=C/C(C)C)ccc1OCc1cn(-c2ccc([N+](=O)[O-])cc2)nn1
Reply: met

Query: Identify whether the reported growth of the following compound is 80% or greater: N#CC1=C(N)Oc2c(sc3c(Br)cccc23)C1c1ccccn1 (stereo not given)
Reply: not met

Query: Identify whether the reported growth of the following compound is 80% or greater: O=C(Cn1cc(CN2CCN(c3ccnc4cc(Cl)ccc34)CC2)nn1)Nc1cccc([N+](=O)[O-])c1
Reply: met

Query: Identify whether the reported growth of the following compound is 80% or greater: CONC1=Nc2cc(NC(N)=NCc3ccccc3)c(N(C)C3CCCCC3)cc2OC1
Reply: not met
